# key: entry, value: aptazyme ON/OFF ratio
B1: Pistol ribozyme (parent)
chain: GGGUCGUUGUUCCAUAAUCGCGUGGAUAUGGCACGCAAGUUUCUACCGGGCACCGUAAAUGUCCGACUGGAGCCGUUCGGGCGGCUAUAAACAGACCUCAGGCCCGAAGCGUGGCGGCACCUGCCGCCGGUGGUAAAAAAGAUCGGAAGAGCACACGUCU

variants of: B1; test: aptazyme ON/OFF ratio, guanine; higher = stronger switching; co-transcriptional cleavage with and without guanine
Write the value as a bare number.

Some solved entries appear below for comparison.
Looking up U7A U8G G9A U10A C12U , I found its aptazyme ON/OFF ratio recorded as 1.37

Looking up U7C U8C G9A U10A U11A C12U , I found its aptazyme ON/OFF ratio recorded as 1.41

Looking up U7A U8G G9U U10A U11C C12G C13A , I found its aptazyme ON/OFF ratio recorded as 1.14

Looking up U7A U8C U11G C13U , I found its aptazyme ON/OFF ratio recorded as 1.21

Looking up U7C U8G G9U U10C U11C C13G , I found its aptazyme ON/OFF ratio recorded as 1.05

Looking up U7G U8C U11G C12A C13U , I found its aptazyme ON/OFF ratio recorded as 1.19

Looking up U7A G9C U10C C13A , I found its aptazyme ON/OFF ratio recorded as 1.01

Looking up U7A G9U U11G C12U C13U , I found its aptazyme ON/OFF ratio recorded as 1.08

Looking up U7A U8C G9U U10C U11G C13A , I found its aptazyme ON/OFF ratio recorded as 1.17

Looking up U7A U8A G9A U10G C13A , I found its aptazyme ON/OFF ratio recorded as 1.6

---
Looking up U7G U8A G9A U10A U11A C13U , I found its aptazyme ON/OFF ratio recorded as 1.23

Looking up U8A G9C U10A C12A C13U , I found its aptazyme ON/OFF ratio recorded as 1.19
